The reported numbers originate from the supplement of paper PMC10567573.

B1: ZBTB22 (parent)
chain: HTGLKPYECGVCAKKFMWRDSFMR

# Variants of: B1
# Assay Method Text: protein stability index of a GFP-peptide fusion (GPS, HEK-293T) (PSI 1-6); higher = more stable;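 note: lentivirally expressed fusions sorted by FACS into six bins by GFP to DsRed ratio, PSI derived from sequencing read proportions per bin multiplied by bin number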
# Recorded Conditions: c terminus: a fixed tail appended
Returns one of yes or no; yes when protein stability index is >= 3.

- Primary Sequence: "HTGLKPYECGVCADKFMWRDSFMR [K14D]"
  Assigned Label: "no"
- Primary Sequence: "HTGLKPYECGVCAKKFMWRDSCMR [F22C]"
  Assigned Label: "no"
- Primary Sequence: "HTGLKPYECGQCAKKFMWRDSFMR [V11Q]"
  Assigned Label: "no"
- Primary Sequence: "HTGLKYYECGVCAKKFMWRDSFMR [P6Y]"
  Assigned Label: "no"
- Primary Sequence: "HTGLKPYECGVCAKKFMWRGSFMR [D20G]"
  Assigned Label: "yes"
- Primary Sequence: "HTGLKPYECGVCAKKFMWRDSFYR [M23Y]"
  Assigned Label: "no"
- Primary Sequence: "HTGLKPYMCGVCAKKFMWRDSFMR [E8M]"
  Assigned Label: "no"
- Primary Sequence: "HTGLKPYEEGVCAKKFMWRDSFMR [C9E]"
  Assigned Label: "no"
- Primary Sequence: "HTGLKPYECGVCAKKFMWRDSFQR [M23Q]"
  Assigned Label: "yes"
- Primary Sequence: "HTGYKPYECGVCAKKFMWRDSFMR [L4Y]"
  Assigned Label: "yes"

Could you tell me if the measured protein stability index of HMGLKPYECGVCAKKFMWRDSFMR [T2M] reaches 3 or more?
no

Decide: protein stability index of HTGLKPYECGVCAKKFMWRKSFMR [D20K] >= 3?
yes

Reported protein stability index reaches at least 3 for HTGLKPYECGVCAKSFMWRDSFMR [K15S] ?
no

# bool: protein stability index of HTGLFPYECGVCAKKFMWRDSFMR [K5F] >= 3
no
